# tested.system: ACE N-domain (Homo sapiens)
# Sequence (P12821 40-624 limits assumed): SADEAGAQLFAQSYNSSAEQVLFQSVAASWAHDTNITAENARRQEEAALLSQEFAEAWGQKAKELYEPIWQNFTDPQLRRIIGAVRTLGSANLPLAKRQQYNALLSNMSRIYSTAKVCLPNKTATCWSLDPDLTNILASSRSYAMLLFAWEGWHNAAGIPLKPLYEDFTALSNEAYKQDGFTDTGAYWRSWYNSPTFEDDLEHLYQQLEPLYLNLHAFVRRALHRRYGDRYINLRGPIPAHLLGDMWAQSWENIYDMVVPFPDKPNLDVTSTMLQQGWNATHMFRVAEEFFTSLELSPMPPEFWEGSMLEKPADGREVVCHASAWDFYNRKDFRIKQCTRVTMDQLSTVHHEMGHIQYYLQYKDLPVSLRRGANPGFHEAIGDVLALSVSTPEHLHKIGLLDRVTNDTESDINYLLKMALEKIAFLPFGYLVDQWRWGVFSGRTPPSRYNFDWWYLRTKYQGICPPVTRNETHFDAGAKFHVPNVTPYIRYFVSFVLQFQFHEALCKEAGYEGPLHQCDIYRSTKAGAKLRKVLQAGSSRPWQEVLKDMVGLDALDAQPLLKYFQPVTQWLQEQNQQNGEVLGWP
measured.endpoint: Ki (µM)

compound	test.result
O=C(CCC(=O)[C@H](Cc1ccccc1)NC(=O)c1ccccc1)N[C@@H](Cc1ccccc1)C(=O)O [Compound 5c]	84.3

1 = O=C(CCC(=O)[C@H](Cc1ccccc1)NC(=O)c1ccccc1)N[C@@H](Cc1c[nH]c2ccccc12)C(=O)O [Compound 5b]
2 = CC(C)(C)OC(=O)N[C@@H](Cc1ccccc1)C(=O)CCC(=O)N1CCC[C@H]1C(=O)O [Compound 11a]
Exam item: Select one. Lower Ki: 1 or 2 # reply format: chosen label
Marked response: 2
(2: 33.6 µM, 1: 196 µM)

The reported numbers originate from patent US7951834B2.
